- target.or.test.system: Transcription factor Jun (Homo sapiens)
- protocol.summary: Effect on transcriptional activity of AP1 transfected in human Hep G2 cells after 1 hr by luciferase reporter gene assay relative to control
- Type: cell-based
- condition.summary: HepG2
Would you mind telling me the reported fold change (FC) of each entry?
Just the number, please, no unit attached.

Task: Please look up its fold change (FC): "COc1c(O)cc2oc(-c3ccccc3)cc(=O)c2c1O"
Result: 1.41

Task: Please look up its fold change (FC): "O=c1cc(-c2ccccc2)oc2cc(O)c(OCc3ccccc3)c(O)c12"
Result: 1.36

Task: Please look up its fold change (FC): "CCCOc1c(O)cc2oc(-c3ccccc3)cc(=O)c2c1O"
Result: 1.43

Task: Please look up its fold change (FC): "CCOc1c(O)cc2oc(-c3ccccc3)cc(=O)c2c1O"
Result: 1.35

Task: Please look up its fold change (FC): "O=c1cc(-c2ccccc2)oc2cc(O)c(O)c(O)c12"
Result: 1.44

Task: Please look up its fold change (FC): "CC(=O)Oc1c(O)cc2oc(-c3ccccc3)cc(=O)c2c1O"
Result: 1.44

###

- target.or.test.system: Cyclic AMP-responsive element-binding protein 1 (Homo sapiens)
- protocol.summary: Effect on transcriptional activity of CREB transfected in forskolin-stimulated human Hep G2 cells after 4 hrs by luciferase reporter gene assay relative to control
- Type: cell-based
- condition.summary: HepG2
Assign Y whenever fold change (FC) does not fall below 7; assign N whenever it does.

Task: Does O=c1cc(-c2ccccc2)oc2cc(O)c(O)c(O)c12 [BAICALEIN] have a reported fold change (FC) of at least 7?
Result: N

Task: Does COc1c(O)cc2oc(-c3ccccc3)cc(=O)c2c1O [OROXYLIN A] have a reported fold change (FC) of at least 7?
Result: N

Task: Does "CCCOc1c(O)cc2oc(-c3ccccc3)cc(=O)c2c1O" have a reported fold change (FC) of at least 7?
Result: Y

Task: Does "CC(=O)Oc1c(O)cc2oc(-c3ccccc3)cc(=O)c2c1O" have a reported fold change (FC) of at least 7?
Result: N

Task: Does "O=c1cc(-c2ccccc2)oc2cc(O)c(OCc3ccccc3)c(O)c12" have a reported fold change (FC) of at least 7?
Result: Y

Task: Does "CCOc1c(O)cc2oc(-c3ccccc3)cc(=O)c2c1O" have a reported fold change (FC) of at least 7?
Result: Y

###

Would you mind telling me the reported fold change (FC) of each entry?
- System: HepG2
- protocol.summary: Effect on transcriptional activity of NF-kappaB transfected in TNF-alpha-stimulated human Hep G2 cells after 4 hrs by luciferase reporter gene assay relative to control
- Assay type: cell-based
Just the number, please, no unit attached.

Task: Please look up its fold change (FC): "CCOc1c(O)cc2oc(-c3ccccc3)cc(=O)c2c1O"
Result: 1.27

Task: Please look up its fold change (FC): "COc1c(O)cc2oc(-c3ccccc3)cc(=O)c2c1O"
Result: 2.5

Task: Please look up its fold change (FC): "O=c1cc(-c2ccccc2)oc2cc(O)c(O)c(O)c12"
Result: 3.35

Task: Please look up its fold change (FC): "O=c1cc(-c2ccccc2)oc2cc(O)c(OCc3ccccc3)c(O)c12"
Result: 1.47

Task: Please look up its fold change (FC): "CCCOc1c(O)cc2oc(-c3ccccc3)cc(=O)c2c1O"
Result: 1.36

Task: Please look up its fold change (FC): "CC(=O)Oc1c(O)cc2oc(-c3ccccc3)cc(=O)c2c1O"
Result: 3.47
